# system: CDK1/Cyclin B1, GST-tag (Homo sapiens)
# Construct: GST
# Sequence (P06493 whole entry): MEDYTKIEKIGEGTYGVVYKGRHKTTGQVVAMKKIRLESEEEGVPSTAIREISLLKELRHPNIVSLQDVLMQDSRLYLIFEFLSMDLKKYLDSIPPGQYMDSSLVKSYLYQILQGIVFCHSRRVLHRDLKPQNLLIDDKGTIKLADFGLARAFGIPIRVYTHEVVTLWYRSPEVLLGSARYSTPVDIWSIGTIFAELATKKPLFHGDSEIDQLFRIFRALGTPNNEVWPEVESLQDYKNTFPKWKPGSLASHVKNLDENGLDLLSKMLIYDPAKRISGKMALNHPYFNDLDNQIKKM
# Sequence (P14635 whole entry partner): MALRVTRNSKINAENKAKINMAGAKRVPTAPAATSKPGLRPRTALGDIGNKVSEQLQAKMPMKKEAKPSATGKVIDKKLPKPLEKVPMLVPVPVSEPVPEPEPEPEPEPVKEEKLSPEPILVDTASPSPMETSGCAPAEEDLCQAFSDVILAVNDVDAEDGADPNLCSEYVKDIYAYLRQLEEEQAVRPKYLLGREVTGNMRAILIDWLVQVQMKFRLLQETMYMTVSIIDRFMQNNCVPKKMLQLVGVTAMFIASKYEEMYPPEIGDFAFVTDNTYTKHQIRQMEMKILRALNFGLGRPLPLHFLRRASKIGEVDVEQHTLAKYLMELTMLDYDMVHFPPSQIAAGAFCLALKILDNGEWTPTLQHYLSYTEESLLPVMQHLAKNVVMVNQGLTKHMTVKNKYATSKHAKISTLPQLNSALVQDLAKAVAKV
# protocolSummary: CDK1/Cyclin B1 biochemical phosphorylation assay (Caliper mobility shift)
# conditionParameters: apparent IC50; 1.0 mM ATP or ATP Km; 1.5 nM enzyme; 25° C.
# Description: […]
pIC50: −log10 of the molar value.
# reported pIC50; entries follow
measuredMetric: pIC50

compound: C[C@H](C1CCOCC1)n1ncc2ncc(Nc3cc(OC(F)F)[nH]n3)nc21 [Example 34]
system: CDK1/Cyclin B1, GST-tag (Homo sapiens)
result: ≤ 6.30
//
compound: FC[C@@H](c1ccccn1)n1ncc2ncc(Nc3cc(OC(F)F)[nH]n3)nc21 (single isomer, unassigned) [Example 15]
system: CDK1/Cyclin B1, GST-tag (Homo sapiens)
result: ≤ 6.30
//
compound: Cc1ncccc1Cn1ncc2ncc(Nc3cc(OC(F)F)[nH]n3)nc21 [Example 95]
system: CDK1/Cyclin B1, GST-tag (Homo sapiens)
result: ≤ 6.30
//
compound: COc1cc(Nc2cnc3cnn(C[C@H]4C[C@@H](C)O[C@@H](C)C4)c3n2)n[nH]1 [Example 66]
system: CDK1/Cyclin B1, GST-tag (Homo sapiens)
result: > 7.00

---

# system: CDK2/Cyclin E (Homo sapiens)
# protocolSummary: CDK2/Cyclin E biochemical phosphorylation assay (Caliper mobility shift)
# conditionParameters: apparent IC50; 1.0 mM ATP or ATP Km; 1.25 nM enzyme; 25° C.; read-out: CDK2/cyclin E1 IC50

compound: C[C@@H](c1ccc(F)nc1)n1ncc2ncc(Nc3cc(OC(F)F)[nH]n3)nc21 (single isomer, unassigned) [Example 151]
IC50: ≤ 0.01 µM

compound: C[C@@H](c1cccnc1F)n1nc(Cl)c2ncc(Nc3cc(OC(F)F)[nH]n3)nc21
IC50: ≤ 0.01 µM

compound: Cn1cncc1Cn1ncc2ncc(Nc3cc(OC(F)F)[nH]n3)nc21
IC50: 0.03 to 0.1 µM

compound: FC(F)Oc1cc(Nc2cnc3cnn(C[C@H]4CCCCO4)c3n2)n[nH]1
IC50: 0.02 to 0.03 µM

compound: CCC([C@@H](C)O)n1ncc2ncc(Nc3cc(OC(F)F)[nH]n3)nc21 (single isomer, unassigned)
IC50: 0.03 to 0.1 µM

compound: FC[C@@H](c1cccnc1)n1ncc2ncc(Nc3cc(OC(F)F)[nH]n3)nc21 (single isomer, unassigned)
IC50: ≤ 0.01 µM

compound: C[C@H](c1cccnc1)n1ncc2ncc(Nc3cc(OC(F)F)[nH]n3)nc21
IC50: 0.02 to 0.03 µM

---

# reported IC50; entries follow
# system: CDK1/Cyclin B1, GST-tag (Homo sapiens)
# Construct: GST
# protocolSummary: CDK1/Cyclin B1 biochemical phosphorylation assay (Caliper mobility shift)
# conditionParameters: apparent IC50; 1.0 mM ATP or ATP Km; 1.5 nM enzyme; 25° C.
measuredMetric: IC50

molecule: C[C@@H](c1cncc(F)c1)n1ncc2ncc(Nc3cc(OC(F)F)[nH]n3)nc21 (single isomer, unassigned) [Example 153]
measuredMetric: IC50
result: ≥ 500 nM
//
molecule: C[C@@H](c1cc(F)ccn1)n1ncc2ncc(Nc3cc(OC(F)F)[nH]n3)nc21 (single isomer, unassigned)
measuredMetric: IC50
result: < 100 nM
//
molecule: CC[C@H]([C@H](C)O)n1ncc2ncc(Nc3cc(OC(F)F)[nH]n3)nc21 (single isomer, unassigned)
measuredMetric: IC50
result: ≥ 500 nM
//
molecule: C[C@@H](c1ccc(F)nc1)n1ncc2ncc(Nc3cc(OC(F)F)[nH]n3)nc21 (single isomer, unassigned) [Example 152]
measuredMetric: IC50
result: ≥ 500 nM
//
molecule: FC(F)Oc1cc(Nc2cnc3cnn(C[C@@H]4CC4(F)F)c3n2)n[nH]1 (single isomer, unassigned) [Example 164]
measuredMetric: IC50
result: ≥ 500 nM
//
molecule: FC(F)Oc1cc(Nc2cnc3cnn(CC45CCC(CC4)OC5)c3n2)n[nH]1
measuredMetric: IC50
result: 100 to 500 nM
//
molecule: C[C@@H](c1cccnc1F)n1nc(C#N)c2ncc(Nc3cc(OC(F)F)[nH]n3)nc21
measuredMetric: IC50
result: 100 to 500 nM

The origin of these recorded values is patent US11970498B2.
